Target: T1, Human ACVR2A (human, UniProt P27037 20-135, limits assumed); further: test concentration or dose not given here
T1 construct: also called activin receptor, type II A
T1 sequence (P27037 20-135 limits assumed): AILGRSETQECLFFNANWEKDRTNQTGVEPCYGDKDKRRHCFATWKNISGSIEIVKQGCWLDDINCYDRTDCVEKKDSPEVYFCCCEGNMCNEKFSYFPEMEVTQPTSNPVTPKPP
Assay: ELISA
# optical density annotations
The response must be a number in OD with no trailing unit.

Check out these entries, answers already filled in.
369_C02 (antibody, V domains shown) VH: EVQLLESGGGLVQPGGSLRLSCAASGFTFDSYSMNWVRQAPGKGLEWVSNINYNGGYKSYADSVKGRFTISRDNSKNTLYLQMNSLRAEDTAVYYCARSANWHDTALDYWGQGTLVTVSS VL: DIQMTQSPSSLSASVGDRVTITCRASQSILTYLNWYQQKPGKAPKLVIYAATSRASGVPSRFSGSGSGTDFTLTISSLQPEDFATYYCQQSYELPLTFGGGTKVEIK | 3.6
373_B12 (antibody, V domains shown) VH: EVQLLESGGGLVQPGGSLRLSCAASGFTFDSYGMNWVRQAPGKGLEWVSSINYNSGYTSYADSVKGRFTISRDNSKNTLYLQMNSLRAEDTAVYYCARSANWHDTALDYWGQGTLVTVSS VL: DIQMTQSPSSLSASVGDRVTITCRASQSIVSYVNWYQQKPGKAPKLLIYAATSRASGVPSRFSGSGSGTDFTLTISSLQPEDFATYYCQQSYDSPLTFGGGTKVEIK | 3.12
368_D05 (antibody, V domains shown) VH: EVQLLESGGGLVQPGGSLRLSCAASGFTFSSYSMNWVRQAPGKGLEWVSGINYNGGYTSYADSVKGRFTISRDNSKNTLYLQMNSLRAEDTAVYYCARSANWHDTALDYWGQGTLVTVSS VL: DIQMTQSPSSLSASVGDRVTITCRASQSILTYLNWYQQKPGKAPKLVIYAATSRASGVPSRFSGSGSGTDFTLTISSLQPEDFATYYCQQSDDSPLTFGGGTKVEIK | 2.86

In: Give me measured optical density, please, for this binder: 369_F10 (antibody, V domains shown) VH: EVQLLESGGGLVQPGGSLRLSCAASGFTFDSYGMNWVRQAPGKGLEWVSNINYNSGYKSYADSVKGRFTISRDNSKNTLYLQMNSLRAEDTAVYYCARSANWHDTALDYWGQGTLVTVSS VL: DIQMTQSPSSLSASVGDRVTITCRASQSIVTYLNWYQQKPGKAPKLLIYAVTSRASGVPSRFSGSGSGTDFTLTISSLQPEDFATYYCQQSYDLPLTFGGGTKVEIK
Out: 3.05

In: Give me measured optical density, please, for this binder: 371_A07 (antibody, V domains shown) VH: EVQLLESGGGLVQPGGSLRLSCAASGFTFSDYSMNWVRQAPGKGLEWVSNINYNGGYKSYADSVKGRFTISRDNSKNTLYLQMNSLRAEDTAVYYCARSANWHDTALDYWGQGTLVTVSS VL: DIQMTQSPSSLSASVGDRVTITCRASQSILSYLNWYQQKPGKAPKLVIYATTSRASGVPSRFSGSGSGTDFTLTISSLQPEDFATYYCQQSYDLPLTFGGGTKVEIK
Out: 2.88
